Assay: gradient 5% acetonitrile 3 min, to 50% in 2 min, to 85% in 15 min, held 3 min, 100 µL/min
Details: column: Zorbax Extend-C18 2.1 x 50 mm; eluents: water / acetonitrile, 0.1% formic acid
endpointName: RP-LC retention time (s)
Answer in s, number only, no unit symbol.

Example results:
CC(C)(Oc1ccc(Cl)cc1)C(=O)Nc1nnc(C2CC(=O)N(c3ccccc3)C2)o1 (stereo not given) = 793
CC1=C(c2ccccc2)S(=O)(=O)N=C1N1CCCN(C(=O)Nc2cccc(F)c2)CC1 = 849
Cc1cc(=O)n(CC(=O)Nc2ccc(Br)cc2F)c(N2CCN(c3ccccc3)CC2)n1 = 978

input: Recorded RP-LC retention time for `O=C(Nc1cccc(Cl)c1)Nc1c(-c2ccc(F)cc2)nc2ccccn12` , please?
output: 730

input: Now the compound COc1cc(NC(=O)N2CCCC(C)(C(=O)NCc3ccc(C)cc3)C2)cc(OC)c1OC (stereo not given)
output: 811

input: Please answer likewise for `Cc1ccc(S(=O)(=O)NC(=O)NN2CCCCCC2)cc1`
output: 914

input: How about this compound: CC(C)C(=O)NCc1csc(C2CCCN(C(=O)CC(C)(C)C)C2)n1 (stereo not given)
output: 734

input: Likewise for `Cc1noc(C)c1-c1ccc(S(=O)(=O)Nc2ccccc2F)cc1` ?
output: 881

input: Now give it for `CCc1noc([C@@H]2CC(F)(F)CN2C(=O)c2cn(C)cn2)n1` too.
output: 644

input: Another compound to look at: `Cc1ccc(C)c(CNC(=O)c2cc(-c3ccncc3)cn2C)c1`
output: 679

input: Next compound up: Cc1cccc(S(=O)(=O)N2CC3CN(C(=O)C(C)c4ccccc4)CC(C2)O3)c1 (stereo not given)
output: 905
